Each entry below carries its reported self-cleavage.
B1: CPEB3 Ribozyme (parent)
chain: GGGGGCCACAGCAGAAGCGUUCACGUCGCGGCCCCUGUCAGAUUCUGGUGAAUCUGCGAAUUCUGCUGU

- Variants of: B1
- Assay method text: self-cleavage, relative activity (ratio to wild type); higher = more cleavage; co-transcriptional

{"columns": ["Mutation id", "self-cleavage"],
 "data": [
  ["G31A U44A", 0.808],
  ["U49G G65U", 0.787],
  ["G17U C27G", 0.185],
  ["G14C U43G", 0.246],
  ["A8G C22U", 0.074],
  ["G11A U21A", 0.875],
  ["G19U G50A", 0.543],
  ["G11U U46G", 0.901],
  ["C33A C35G", 0.204],
  ["A16G G47U", 0.998],
  ["G37A G47C", 0.308],
  ["A16U A60C", 0.227],
  ["G5A G31C", 0.118],
  ["G25C C27G", 0.225],
  ["G2A C7U", 0.0501],
  ["G47C U49G", 1],
  ["A60U G65A", 0.527],
  ["G3U A16U", 0.0502],
  ["G17C G28U", 0.111],
  ["G1C A10G", 0.21],
  ["G2C C24A", 0.0707],
  ["G37A C57A", 0.217],
  ["C24U G56U", 0.528],
  ["C12U C18U", 0.6],
  ["A15C G68U", 0.969],
  ["U49C C54G", 0.789],
  ["U43A U46A", 0.958],
  ["G4C C63U", 0.584],
  ["G17A G58U", 0.539],
  ["G17A G28U", 0.139],
  ["G3U G5A", 0.0231],
  ["G4C U36G", 0.481],
  ["U20C U44A", 0.185],
  ["C57U A59U", 0.256],
  ["A13C C66U", 0.465],
  ["G1A G50U", 0.0729],
  ["C22U A60C", 0.158],
  ["U21G U69C", 0.863],
  ["G11U C24U", 0.422],
  ["G2U C12A", 0.0547],
  ["C7G C54A", 0.138],
  ["A51C U67G", 0.993],
  ["A8C C29A", 0.532],
  ["U62A C66A", 0.499],
  ["A59U A60G", 0.56],
  ["G14C G50C", 0.405]
]}
